Origin of measurements: patent US9493468B2

Tested on: Trichophyton rubrum
Assay: Antifungal activity in vitro, resazurin growth inhibition: Trichophyton rubrum (B68183)
Assay type: cell-based
For each entry below, report its Inf. C: Trichophyton rubrum B68183, pIC50 value.
Give bare numbers.

Recorded Inf. C: Trichophyton rubrum B68183, pIC50, per entry:
1. Clc1cccc2c1CN=C(c1cnc3c(c1)CCC3)c1cccn1-2 :: 6.87
2. Clc1cccc2c1CN=C(c1ccc3ccsc3c1)c1cccn1-2 :: 7.35
3. Cc1cccc(C2NCc3c(Cl)cccc3-n3cccc32)n1 (racemic) :: 4.92
4. Cc1ccc2cc(C3NCc4c(Cl)cc(Cl)cc4-n4cccc43)oc2c1.Cl (racemic) :: 4.80

Can you look up the measured Inf. C: Trichophyton rubrum B68183, pIC50 of `CC(C)n1ccc(C2=NCc3cccc(Cl)c3-n3cccc32)cc1=O` for me?
5.55

---

For each entry below, report its Inf. K: Rhizomucor miehei IHEM13391, pIC50 value.
Tested on: Rhizomucor miehei
Experiment: Antifungal activity in vitro, resazurin growth inhibition: Rhizomucor miehei (IHEM13391)
Format: cell-based

Recorded Inf. K: Rhizomucor miehei IHEM13391, pIC50, per entry:
1. CC(F)(F)c1ccc(C2=NCc3c(Cl)cc(Cl)cc3-n3cccc32)cn1 :: <4.19
2. Fc1cccc2cc(C3=NCc4c(Cl)cc(Cl)cc4-n4cccc43)oc12 :: <4.19
3. Clc1cccc2c1CN=C(c1cc3ccccc3o1)c1cccn1-2 :: <4.19
4. Cn1ccc2ccc(C3=NCc4c(Cl)cccc4-n4cccc43)cc21 :: <4.19
5. Cc1cccc2c1CN=C(c1cc3cc(Cl)ccc3o1)c1cccn1-2 :: <4.19
6. COc1ccc2oc(C3=NCc4c(Cl)cccc4-n4cccc43)cc2c1 :: <4.19
7. Clc1ccc2oc(C3=NCc4c(Cl)cccc4-n4cccc43)cc2c1 :: 5.58
8. Fc1ccc2oc(C3NCc4c(Cl)cccc4-n4cccc43)cc2c1 (racemic) :: 4.81
9. Clc1cccc2c1CN=C(c1ccc3ccsc3c1)c1cccn1-2 :: 4.72
10. CC(F)(F)c1ccc(C2=NCc3c(Cl)cc(F)cc3-n3cccc32)cn1 :: <4.19

// input: 2 molecules below; output: Inf. K: Rhizomucor miehei IHEM13391, pIC50 for each
1. c1ccc2c(c1)CN=C(c1cc3ccccc3o1)c1cccn1-2
2. Clc1ccc2c(c1)-n1cccc1C(c1ccc3ncsc3c1)=NC2

4.88
<4.19

---

Test system: Trichophyton mentagrophytes
Assay: Antifungal activity in vitro, resazurin growth inhibition: Trichophyton mentagrophytes (B70554)
Type: cell-based
Each entry gets 0 if its Inf. G: Trichophyton mentagrophytes B70554, pIC50 stays under 6, and 1 if its Inf. G: Trichophyton mentagrophytes B70554, pIC50 is 6 or above.

Record excerpt, results attached:
1) Fc1cccc2c1CN=C(c1ccc3sc(C(F)(F)F)nc3c1)c1cccn1-2 :: 0
2) Cc1cccc2c1CNC(c1cc3ccccc3o1)c1cccn1-2.Cl (racemic) :: 0
3) COc1ccc2oc(C3NCc4c(Cl)cc(Cl)cc4-n4cccc43)cc2c1.Cl (racemic) :: 0

Test whether the molecule `CC(F)(F)c1ccc(C2=NCc3c(Cl)cccc3-n3cccc32)cn1` records Inf. G: Trichophyton mentagrophytes B70554, pIC50 of 6 or higher.
1

Test whether the molecule `Fc1cccc2c1CN=C(c1ccc3scnc3c1)c1cccn1-2` records Inf. G: Trichophyton mentagrophytes B70554, pIC50 of 6 or higher.
0

Test whether the molecule `Clc1cccc2c1CN=C(c1ccc3c(Cl)coc3c1)c1cccn1-2` records Inf. G: Trichophyton mentagrophytes B70554, pIC50 of 6 or higher.
0

Test whether the molecule `Cc1cccc2c1-n1cccc1C(c1cc3ccccc3o1)=NC2` records Inf. G: Trichophyton mentagrophytes B70554, pIC50 of 6 or higher.
1

Test whether the molecule `Clc1ccc(Cl)c2c1CN=C(c1ccc3ccoc3c1)c1cccn1-2` records Inf. G: Trichophyton mentagrophytes B70554, pIC50 of 6 or higher.
0
